test system: EfPiwi piRISC loaded with piRNA #1 (26 nt); assay: pre-steady-state target cleavage rate (min^-1); auxiliary factor: 500 nM Ephydatia muelleri Gtsf1; guide: piRNA #1 5'p-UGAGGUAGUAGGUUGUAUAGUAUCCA; MIWI and MILI are mouse PIWI proteins and EfPiwi is from a freshwater sponge; tags in brackets are library labels; higher = faster piRNA-guided slicing of the target
Hi all, reminder that labels come from pre-steady-state target cleavage rate, split as low = under 0.004, medium = from 0.004 up to 0.006, high = 0.006 and over

{"sequence_text": "GGAGAGGAUAGUAUACAACCUUCUACCUCA", "group_label": "low"}
{"sequence_text": "GGAGUGGUUACUAUACAAGCUACUACCUCA", "group_label": "medium"}
{"sequence_text": "GGAGACCAUACUAUACUACCUACUACCACA", "group_label": "high"}
{"sequence_text": "GGAGACGAUACUAUACAACCUACUACCAUCA", "group_label": "medium"}
{"sequence_text": "GGAGACGAUUCUAUACAACCUACUACCACA", "group_label": "low"}
{"sequence_text": "GGAGACGAUUCUAUACAACCUACUUCCUCA", "group_label": "low"}
{"sequence_text": "GGAGUGGAUACUAUCACAACCUACUACCUCA", "group_label": "high"}
{"sequence_text": "GGAGACCAUACUAUUCAACCUACUACCUCA", "group_label": "medium"}
{"sequence_text": "GGAGACCUAACUAUACAACCUACUACUCUCA", "group_label": "medium"}
{"sequence_text": "GGAGUGCAUACUAUUCAACCUACUACCUCA", "group_label": "medium"}
{"sequence_text": "GGAGUGAAUACUAUACAACCUACUACCUCA", "group_label": "high"}
{"sequence_text": "GGAGAGGAUACUAUACAACCUACUUCCACA", "group_label": "low"}
{"sequence_text": "GGAGACGAUACUAUAGAUCCUACUACCUCA", "group_label": "medium"}
{"sequence_text": "GGAGAGGAUACUGUACAACCUACUACCUCA", "group_label": "high"}
{"sequence_text": "GGAGACCAUUCUAUACAUCCUACUACCUCA", "group_label": "medium"}
{"sequence_text": "GGAGUGGAUAACUAUACAACCUACUACCUCA", "group_label": "high"}
{"sequence_text": "GGAGAGGAUACUUUACAACCUACUACCACA", "group_label": "low"}
{"sequence_text": "GGAGUGGAUACUAUACAACCUACUACCCA", "group_label": "high"}
{"sequence_text": "GGAGACCAUACUAUAUCAACCUACUACCUCA", "group_label": "high"}
{"sequence_text": "GGAGACCUAUCAUUACAACCUACUACCUCA", "group_label": "medium"}
{"sequence_text": "GGAGACGAUACUAUACAACCUUCAACCUCA", "group_label": "low"}
{"sequence_text": "GGAGUGGAUACCUAUACAACCUACUACCUCA", "group_label": "high"}
{"sequence_text": "GGAGUGGAUACUAUACAACCUACUACGAGA", "group_label": "medium"}
{"sequence_text": "GGAGACGAUACUAAACAACCUUCUACCUCA", "group_label": "medium"}
{"sequence_text": "GGAGUGGAUACUAUACAACCUACUACUCUCA", "group_label": "medium"}
{"sequence_text": "GGAGACCUUACCUAUACAACCUACUACCUCA", "group_label": "high"}
{"sequence_text": "GGAGACGAUAGUAUACAACCUACUACGUCA", "group_label": "low"}
